Where these numbers come from: patent US20230027295A1

# Study target: hERG current (Homo sapiens, UniProt Q12809)
# Sequence (Q12809 whole entry): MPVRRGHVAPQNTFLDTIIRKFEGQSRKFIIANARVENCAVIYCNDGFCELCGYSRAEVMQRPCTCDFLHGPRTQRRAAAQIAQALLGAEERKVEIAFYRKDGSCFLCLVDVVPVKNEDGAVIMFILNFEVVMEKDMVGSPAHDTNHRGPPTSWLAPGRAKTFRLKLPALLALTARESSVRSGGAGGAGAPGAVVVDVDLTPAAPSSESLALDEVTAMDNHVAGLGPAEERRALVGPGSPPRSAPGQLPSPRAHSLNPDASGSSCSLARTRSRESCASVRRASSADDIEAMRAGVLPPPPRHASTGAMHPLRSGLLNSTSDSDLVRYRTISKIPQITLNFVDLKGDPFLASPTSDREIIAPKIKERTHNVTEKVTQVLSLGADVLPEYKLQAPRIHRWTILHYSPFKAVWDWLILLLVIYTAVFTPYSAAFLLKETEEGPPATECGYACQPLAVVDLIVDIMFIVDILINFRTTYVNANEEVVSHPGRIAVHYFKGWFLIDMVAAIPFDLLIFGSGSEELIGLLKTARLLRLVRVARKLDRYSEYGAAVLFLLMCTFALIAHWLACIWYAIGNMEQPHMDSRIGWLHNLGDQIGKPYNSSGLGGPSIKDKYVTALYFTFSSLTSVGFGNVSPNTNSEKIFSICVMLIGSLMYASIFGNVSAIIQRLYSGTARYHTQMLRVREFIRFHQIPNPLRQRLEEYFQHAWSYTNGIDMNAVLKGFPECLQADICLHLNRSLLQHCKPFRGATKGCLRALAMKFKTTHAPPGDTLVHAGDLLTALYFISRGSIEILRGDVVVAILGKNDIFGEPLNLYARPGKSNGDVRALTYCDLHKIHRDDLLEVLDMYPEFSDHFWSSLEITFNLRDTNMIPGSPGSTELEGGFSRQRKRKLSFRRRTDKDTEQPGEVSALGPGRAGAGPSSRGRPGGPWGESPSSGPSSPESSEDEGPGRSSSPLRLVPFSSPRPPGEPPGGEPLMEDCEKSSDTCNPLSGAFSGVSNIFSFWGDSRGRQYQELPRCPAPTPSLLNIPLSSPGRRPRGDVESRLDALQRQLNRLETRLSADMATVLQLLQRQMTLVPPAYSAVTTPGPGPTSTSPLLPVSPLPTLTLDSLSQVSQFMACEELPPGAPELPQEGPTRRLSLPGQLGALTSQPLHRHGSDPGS
# Method summary: hERG current in HEK293-hERG stably transfected cells
# Cond: HEK293-hERG cells
Quantity: IC50

COc1nn([C@@H](Cc2ccccc2)C(=O)Nc2ccc(C(=O)O)cc2)c(=O)cc1-c1cc(Cl)ccc1C(C)=O; > 10 µM

Pending compound:
IN: IC50 lookup needed for CCC(=O)c1ccc(Cl)cc1-c1cc(=O)n([C@@H](Cc2ccccc2)C(=O)Nc2ccc(C(=O)O)cc2)nc1OC , thanks.
OUT: > 10 µM

----------
# Lookup of reported Papp A→B at 2 h keyed by entry
# Method summary: Caco-2 permeability
# Format: in vitro ADME
# Cond: human; Caco-2 monolayer, 2h incubation
Number in ×10⁻⁶ cm/s, nothing else.

COc1cn([C@@H](Cc2ccccc2)C(=O)Nc2ccc(C(=O)O)cc2)c(=O)cc1-c1cc(Cl)ccc1C(C)=O [Compound B, reference compound]; 1.55
CCC(=O)c1ccc(Cl)cc1-c1cc(=O)n([C@@H](Cc2ccccc2)C(=O)Nc2ccc(C(=O)O)cc2)nc1OC; 1.2

IN: Papp A→B at 2 h lookup needed for COc1nn([C@@H](Cc2ccccc2)C(=O)Nc2ccc(C(=O)O)cc2)c(=O)cc1-c1cc(Cl)ccc1C(C)=O , thanks.
OUT: 1.54
